- Tested on: Fusarium virguliforme (Fv)
- assay_comment: Growth inhibition assay of fungal pathogens
- Type: cell-based
- protocol_conditions: 48 h, Table 4b, 48 hours, read-out: Concentration at 90% Inhibition Fv
Please go through the items and note down their IC90.

Problem: Any idea what its IC90 is? The compound is COc1ccc(F)cc1[C@H](Cn1c(=O)n(C(C)(C)C(N)=O)c(=O)c2c(C)c(-n3cccn3)sc21)O[C@H]1CC[C@@H](O)CC1 [Compound I-5]
Result: 10 µg/mL

Problem: // IC90 lookup, key: CCO[C@@H](Cn1c(=O)n(C(C)(C)C(=O)N2CCCC2)c(=O)c2c(C)c(-n3cccn3)sc21)c1cc(F)ccc1OC [Compound I-34]
Result: 0.4 µg/mL

Problem: Which IC90 is reported for this compound? COc1ccc(F)cc1[C@H](Cn1c(=O)n(C(C)(C)C(=O)N2CC(O)C2)c(=O)c2c(C)c(-n3cccn3)sc21)OC1CCOCC1 [Compound I-9]
Result: > 50 µg/mL

---

- System: C. albicans ATCC 90028
- assay_comment: Anti-Fungal (Candida) Activity Assay, broth microtiter MIC
- Assay type: cell-based
- protocol_conditions: ATCC90028, 48 h, read-out: MIC C. albicans ATCC 90028
Give measured MIC for each item. Keep answers brief.

Problem: MIC lookup needed for COc1ccc(F)cc1[C@H](Cn1c(=O)n(C(C)(C)C(=O)NC(C)C)c(=O)c2c(C)c(-n3cccn3)sc21)OCC(C)(C)O [Compound I-41] , thanks.
Result: > 4.1 µg/mL

Problem: What value of measured MIC is listed for COc1ccccc1[C@H](Cn1c(=O)n(C(C)(C)C(=O)NC(C)C)c(=O)c2c(C)c(-n3cccn3)sc21)OCC(C)C [Compound I-21] ?
Result: 0.25 to 1 µg/mL

Problem: Returns the measured MIC for the input compound. Input: COc1ccccc1[C@H](Cn1c(=O)n(C(C)(C)C(=O)NC(C)C)c(=O)c2c(C)c(-n3cccn3)sc21)OC1CCOCC1 [Compound I-11]
Result: > 4.1 µg/mL

Problem: Request the reported MIC associated with COc1ccc(F)cc1[C@H](Cn1c(=O)n(C(C)(C)C(=O)NC(C)C)c(=O)c2c(C)c(-n3cccn3)sc21)OC[C@@H](C)O [Compound I-39]
Result: > 4.1 µg/mL

Problem: Value lookup for MIC; key = COc1ccc(F)cc1[C@H](Cn1c(=O)n(C(C)(C)C(=O)NC(C)C)c(=O)c2c(C)c(-n3cccn3)sc21)OC1CCC(=O)CC1 [Compound I-26]
Result: 1.1 to 2 µg/mL

Problem: Fill in: MIC of COc1ccc(F)cc1[C@H](Cn1c(=O)n(C(C)(C)C(=O)N2CCCCC2)c(=O)c2c(C)c(-n3cccn3)sc21)OC1CCOCC1 [Compound I-8] is ___
Result: 0.25 to 1 µg/mL

Problem: For the compound shown here, COc1ccc(F)cc1[C@H](Cn1c(=O)n(C(C)(C)C(=O)NC(C)C)c(=O)c2c(C)c(-n3cccn3)sc21)OC[C@H](C)O [Compound I-38] , give the reported MIC.
Result: > 4.1 µg/mL

Problem: Given COc1ccccc1[C@H](Cn1c(=O)n(C(C)(C)C(=O)N2CCCCC2)c(=O)c2c(C)c(-n3cccn3)sc21)OCC(C)C [Compound I-23] , state its recorded MIC.
Result: 0.25 to 1 µg/mL

Problem: Which MIC value belongs to COc1ccc(F)cc1[C@H](Cn1c(=O)n(C(C)C(=O)NC(C)C)c(=O)c2c(C)c(-n3cccn3)sc21)OC(C)C (stereo partly shown) [Compound I-29] ?
Result: 1.1 to 2 µg/mL

Problem: Sample COCCO[C@@H](Cn1c(=O)n(C(C)(C)C(=O)NC(C)C)c(=O)c2c(C)c(-n3cccn3)sc21)c1cc(F)ccc1OC [Compound I-43] — what was its MIC?
Result: 1.1 to 2 µg/mL

Values were extracted from patent US10941158B2.
